// provenance: ChEMBL document CHEMBL4402598

Protocol: AUC (0 to t) in ICR mouse at 10 mg/kg, po by LC-MS/MS analysis
Format: ADME, organism-based
Experimental Context: in vivo
Quantity Kind: AUC(0-t) (µg·h/mL)

                                 cpd_smiles  quantity_kind  units_text  reported
0  CCCN(CCCCNC(=O)c1ccc(-c2ccccn2)cc1)C[C@@H]1C[C@H]1c1cc(F)ccc1OC.Cl       AUC(0-t)     µg·h/mL    0.0495
1  CCCN(CCCCNC(=O)c1ccc(-c2ccccn2)cc1)C[C@@H]1C[C@H]1c1cccc(Cl)c1Cl.Cl       AUC(0-t)     µg·h/mL     0.254
2  CCCN(CCCCNC(=O)c1cc2ccccc2[nH]1)C[C@@H]1C[C@H]1c1cccc(Cl)c1Cl.Cl       AUC(0-t)     µg·h/mL     0.428
3  CCCN(CCCCNC(=O)c1ccc2ccccc2c1)C[C@@H]1C[C@H]1c1cccc(Cl)c1Cl.Cl       AUC(0-t)     µg·h/mL    0.0811
